These measurements were taken from paper PMC2654417.

- tested_system: UniProt P04150
- assay_info: GR-EFC nuclear translocation assay
- Assay type: cell-based
- setup_conditions: maximal activity of the qHTS curve; inactive threshold […] (3σ)
Recorded measurements of qHTS Max Activity, one per entry

{"compound": "CCOC(=O)O[C@]1(C(=O)COC(=O)CC)CC[C@H]2[C@@H]3CCC4=CC(=O)C=C[C@]4(C)[C@H]3[C@@H](O)C[C@@]21C [NCGC00016926-01]", "qHTS Max Activity": 30.2}
{"compound": "CC1(C)O[C@@H]2C[C@H]3[C@@H]4C[C@H](F)C5=CC(=O)C=C[C@]5(C)[C@H]4[C@@H](O)C[C@]3(C)[C@]2(C(=O)CO)O1 [NCGC00016983-01]", "qHTS Max Activity": 97.1}
{"compound": "C[C@]12C=CC(=O)C=C1CC[C@@H]1[C@H]3C[C@@H](O)[C@](O)(C(=O)CO)[C@@]3(C)C[C@H](O)[C@]12F [NCGC00016376-01]", "qHTS Max Activity": 67.5}
{"compound": "C[C@@]12CCC(=O)C=C1CC[C@H]1[C@H]3CC[C@](O)(C(=O)CO)[C@]3(C)CC[C@@H]12 [NCGC00015886-01]", "qHTS Max Activity": 41.2}
{"compound": "C#C[C@@]1(O)CC[C@@H]2[C@@H]3CCC4=CC(=O)CC[C@@]4(C)[C@H]3CC[C@]21C [NCGC00016444-01]", "qHTS Max Activity": 15.2}
{"compound": "CC(=O)[C@@]1(O)CC[C@H]2[C@@H]3C[C@H](C)C4=CC(=O)C=C[C@]4(C)[C@@]3(F)[C@@H](O)C[C@@]21C [NCGC00016442-01]", "qHTS Max Activity": 84.0}

* * *

- tested_system: glucocorticoid receptor (GR) (Homo sapiens)
- assay_info: GR-EFC nuclear translocation assay
- Type: cell-based
- setup_conditions: read-out: qEC50; qHTS curve fit; class 4 values are fit defaults
measured_quantity: EC50

{"compound": "C[C@@]12C[C@@H](O)[C@H]3[C@@H](CCC4=CC(=O)CC[C@]43C)[C@H]1CC[C@H]2C(=O)CO [NCGC00016214-01]", "recorded_measurement": "16.5 nM"}
{"compound": "CC(=O)[C@@H]1CC[C@H]2[C@H]3CC[C@H]4C[C@@H](O)CC[C@]4(C)[C@@H]3CC[C@]12C", "recorded_measurement": "> 9000 nM"}
{"compound": "C[C@]12C=CC(=O)C=C1CC[C@@H]1[C@H]3C[C@@H](O)[C@](O)(C(=O)CO)[C@@]3(C)C[C@H](O)[C@]12F", "recorded_measurement": "82.7 nM"}
{"compound": "CC1(C)O[C@@H]2C[C@H]3[C@@H]4C[C@H](F)C5=CC(=O)CC[C@]5(C)[C@H]4[C@@H](O)C[C@]3(C)[C@]2(C(=O)CO)O1", "recorded_measurement": "18.8 nM"}
{"compound": "CC(=O)OCC(=O)[C@@]1(OC(C)=O)[C@H](C)C[C@H]2[C@@H]3C[C@H](F)C4=CC(=O)C=C[C@@]4(C)[C@]3(F)[C@H](O)C[C@@]21C", "recorded_measurement": "77.5 nM"}
{"compound": "COc1cc2c(cc1O)CC[C@@H]1[C@@H]2CC[C@@]2(C)[C@H](O)CC[C@H]12", "recorded_measurement": "> 9000 nM"}
{"compound": "C[C@]12CC[C@H](O)C[C@@H]1CC[C@H]1[C@H]2CC[C@]2(C)[C@H](C(=O)CO)CC[C@@H]12", "recorded_measurement": "> 9000 nM"}
{"compound": "CCOC(=O)O[C@]1(C(=O)COC(=O)CC)CC[C@H]2[C@@H]3CCC4=CC(=O)C=C[C@]4(C)[C@H]3[C@@H](O)C[C@@]21C", "recorded_measurement": "9.44 nM"}
{"compound": "CC(=O)[C@@H]1CC[C@@H]2[C@@H]3CC=C4C[C@H](OS(=O)(=O)O)CC[C@@]4(C)[C@H]3CC[C@]21C", "recorded_measurement": "> 9000 nM"}
{"compound": "CC(=O)OCC(=O)[C@H]1CC[C@H]2[C@@H]3CC[C@H]4C[C@H](O)CC[C@]4(C)[C@H]3C(=O)C[C@]12C", "recorded_measurement": "> 9000 nM"}
{"compound": "COc1cc2c(cc1O)CCC1C2CC[C@@]2(C)C1CC[C@@H]2O (stereo partly shown)", "recorded_measurement": "> 9000 nM"}
{"compound": "C[C@@]12CC[C@@H]3c4ccc(O)cc4CC[C@H]3[C@H]1C[C@@H](O)[C@H]2O", "recorded_measurement": "> 9000 nM"}
{"compound": "COc1ccc2c(c1)CC[C@H]1[C@@H]2CC[C@@]2(C)[C@@H](NCCCCCCN3C(=O)C=CC3=O)CC[C@@H]12", "recorded_measurement": "> 9000 nM"}

* * *

- tested_system: UniProtKB P04150
- Sequence (P04150 1-777): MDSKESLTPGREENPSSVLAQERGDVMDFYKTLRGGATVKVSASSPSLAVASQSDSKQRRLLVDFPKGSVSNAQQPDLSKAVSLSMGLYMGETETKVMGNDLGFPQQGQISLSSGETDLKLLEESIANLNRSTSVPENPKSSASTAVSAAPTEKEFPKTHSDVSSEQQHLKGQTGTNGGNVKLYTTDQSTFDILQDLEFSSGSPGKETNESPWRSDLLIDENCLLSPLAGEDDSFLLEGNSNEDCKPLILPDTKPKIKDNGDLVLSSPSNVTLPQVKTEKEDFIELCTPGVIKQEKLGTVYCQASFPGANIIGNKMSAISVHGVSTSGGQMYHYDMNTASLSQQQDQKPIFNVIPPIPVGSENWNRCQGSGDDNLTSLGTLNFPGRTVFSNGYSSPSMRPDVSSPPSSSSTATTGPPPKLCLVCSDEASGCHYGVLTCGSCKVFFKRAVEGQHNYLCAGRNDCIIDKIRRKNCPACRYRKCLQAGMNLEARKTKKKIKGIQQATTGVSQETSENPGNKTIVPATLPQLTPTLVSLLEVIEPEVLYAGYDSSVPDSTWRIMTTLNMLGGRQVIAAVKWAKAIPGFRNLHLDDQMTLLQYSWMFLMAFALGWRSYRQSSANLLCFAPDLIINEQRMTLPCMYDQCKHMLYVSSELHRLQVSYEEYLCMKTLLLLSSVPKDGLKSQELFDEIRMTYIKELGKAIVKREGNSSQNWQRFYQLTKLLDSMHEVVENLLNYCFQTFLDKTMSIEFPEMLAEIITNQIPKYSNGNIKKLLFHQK
- assay_info: GR-EFC nuclear translocation assay
- Type: cell-based
- setup_conditions: Hill slope of the qHTS curve fit
qHTS Hill Slope vs 0.6: at or above is 1, below is -1.

{"compound": "C[C@H]1C[C@@H]2[C@H]([C@@H](O)C[C@@]3(C)[C@H]2CC[C@]3(O)C(=O)CO)[C@@]2(C)C=CC(=O)C=C12", "assigned_label": 1}
{"compound": "C[C@@]12C[C@@H](O)[C@H]3[C@@H](CCC4=CC(=O)CC[C@]43C)[C@H]1CC[C@H]2C(=O)CO [NCGC00016214-01]", "assigned_label": 1}
{"compound": "CC(=O)OCC(=O)[C@@]1(O)CC[C@H]2[C@@H]3CCC4=CC(=O)C=C[C@]4(C)[C@@]3(F)[C@@H](O)C[C@@]21C", "assigned_label": -1}
{"compound": "CC(=O)[C@@]1(O)CC[C@@H]2[C@@H]3CCC4=CC(=O)CC[C@@]4(C)[C@H]3CC[C@]21C", "assigned_label": -1}
{"compound": "CC(=O)[C@@]1(O)CC[C@H]2[C@@H]3C[C@H](C)C4=CC(=O)C=C[C@]4(C)[C@@]3(F)[C@@H](O)C[C@@]21C", "assigned_label": 1}
{"compound": "CC(=O)CC(=O)[C@@]1(O)CC[C@@H]2[C@@H]3C=C(C)C4=CC(=O)CC[C@@H]4[C@H]3CC[C@]21C", "assigned_label": -1}
{"compound": "CC(=O)OCC(=O)[C@@]1(O)CC[C@@H]2[C@H]3CCC4=CC(=O)CC[C@]4(C)[C@]3(F)[C@@H](O)C[C@@]21C", "assigned_label": 1}
{"compound": "CC1(C)O[C@@H]2C[C@H]3[C@@H]4C[C@H](F)C5=CC(=O)C=C[C@]5(C)[C@H]4[C@@H](O)C[C@]3(C)[C@]2(C(=O)CO)O1", "assigned_label": -1}
{"compound": "C[C@@]12CCC(=O)C=C1CC[C@@H]1[C@@H]2[C@H](O)C[C@]2(C)[C@@H]1CC[C@]2(O)C(=O)CO [NCGC00016215-01]", "assigned_label": 1}
{"compound": "CCC(=O)[C@@]1(C)[C@H](C)C[C@H]2[C@@H]3CCC4=CC(=O)C=C[C@]4(C)[C@H]3[C@@H](O)C[C@@]21C", "assigned_label": -1}
{"compound": "C[C@@]12CCC(=O)C=C1CC[C@@H]1[C@@H]2[C@H](O)C[C@]2(C)[C@@H]1CC[C@]2(O)C(=O)COC(=O)CCC(=O)[O-].[Na+]", "assigned_label": 1}
{"compound": "CC1(C)O[C@@H]2C[C@H]3[C@@H]4C[C@H](F)C5=CC(=O)CC[C@]5(C)[C@H]4[C@@H](O)C[C@]3(C)[C@]2(C(=O)CO)O1", "assigned_label": 1}
{"compound": "C[C@@]12C[C@@H](O)[C@H]3[C@@H](CCC4=CC(=O)CC[C@]43C)[C@H]1CC[C@H]2C(=O)CO [NCGC00015222-01]", "assigned_label": 1}
{"compound": "CC(=O)OCC(=O)[C@@]1(OC(C)=O)[C@H](C)C[C@H]2[C@@H]3C[C@H](F)C4=CC(=O)C=C[C@@]4(C)[C@]3(F)[C@H](O)C[C@@]21C", "assigned_label": -1}
{"compound": "C[C@@]12CCC(=O)C=C1CC[C@@H]1[C@@H]2[C@H](O)C[C@]2(C)[C@@H]1CC[C@]2(O)C(=O)CO [NCGC00015507-01]", "assigned_label": -1}
{"compound": "CCOC(=O)O[C@]1(C(=O)COC(=O)CC)CC[C@H]2[C@@H]3CCC4=CC(=O)C=C[C@]4(C)[C@H]3[C@@H](O)C[C@@]21C", "assigned_label": 1}
{"compound": "C[C@]12C=CC(=O)C=C1CC[C@@H]1[C@H]3C[C@@H](O)[C@](O)(C(=O)CO)[C@]3(C)C[C@H](O)[C@]12F", "assigned_label": 1}
